System: human diffuse large B-cell lymphoma cells (Karpas 422 cell)
TEST: Karpas 422 cell proliferation, Calcein AM staining
Assay type: cell-based
CONDITION_LABEL: Homo sapiens, KARPAS-422; data of 14th day; read-out: Karpas422 Proliferation IC50 Nanomoles per Liter
Assignment: determine reported pIC50 for the given compounds.
Give bare numbers, as −log10 of the molar value.

Below, each entry is followed by its recorded pIC50 result.
Input: Return reported pIC50. Input compound: `CCCN1CC2(CCOCC2)c2ccc(-c3cc(N(CC)C4CCOCC4)c(C)c(C(=O)NCc4c(C)cc(C)[nH]c4=O)c3F)cc21`
Output: 8.47

Input: Return reported pIC50. Input compound: CCN(c1cc(-c2ccc3c(c2)NC(=O)C32CCOCC2)cc(C(=O)NCc2c(C)cc(C)[nH]c2=O)c1C)C1CCC(N(C)C2COC2)CC1 (stereo not drawn)
Output: 8.45

Continuing:
Input: Return reported pIC50. Input compound: CCN(c1cc(-c2ccc3c(c2)N(C(C)C(C)C)CC32CCOCC2)c(Cl)c(C(=O)NCc2c(C)cc(C)[nH]c2=O)c1C)C1CCOCC1 (stereo not drawn)
Output: 9.01

---

STUDY_SYSTEM: Mutant type EZH2(Y641N) (Homo sapiens (Human), UniProt Q15910, Y641N)
Sequence (Q15910 whole entry Y641N): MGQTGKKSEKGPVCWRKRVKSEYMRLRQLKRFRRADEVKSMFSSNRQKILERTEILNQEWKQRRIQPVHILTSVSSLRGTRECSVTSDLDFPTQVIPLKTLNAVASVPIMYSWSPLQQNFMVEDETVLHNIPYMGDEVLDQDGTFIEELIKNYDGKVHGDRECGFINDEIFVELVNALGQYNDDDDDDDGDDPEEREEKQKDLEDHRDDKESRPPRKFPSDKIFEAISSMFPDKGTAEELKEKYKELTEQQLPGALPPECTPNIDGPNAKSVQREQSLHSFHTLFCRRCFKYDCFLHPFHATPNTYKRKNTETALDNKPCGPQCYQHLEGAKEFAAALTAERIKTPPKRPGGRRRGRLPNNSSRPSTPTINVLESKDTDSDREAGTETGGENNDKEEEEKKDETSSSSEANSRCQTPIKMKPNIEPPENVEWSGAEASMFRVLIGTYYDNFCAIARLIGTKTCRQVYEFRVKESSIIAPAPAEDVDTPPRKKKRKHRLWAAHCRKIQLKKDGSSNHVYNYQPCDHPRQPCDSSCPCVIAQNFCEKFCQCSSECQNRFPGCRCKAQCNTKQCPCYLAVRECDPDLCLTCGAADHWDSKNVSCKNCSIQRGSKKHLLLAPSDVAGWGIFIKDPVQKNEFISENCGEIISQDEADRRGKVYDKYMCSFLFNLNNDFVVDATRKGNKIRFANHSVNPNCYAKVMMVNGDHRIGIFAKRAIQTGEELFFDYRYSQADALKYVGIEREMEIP
Sequence (O75530 whole entry partner): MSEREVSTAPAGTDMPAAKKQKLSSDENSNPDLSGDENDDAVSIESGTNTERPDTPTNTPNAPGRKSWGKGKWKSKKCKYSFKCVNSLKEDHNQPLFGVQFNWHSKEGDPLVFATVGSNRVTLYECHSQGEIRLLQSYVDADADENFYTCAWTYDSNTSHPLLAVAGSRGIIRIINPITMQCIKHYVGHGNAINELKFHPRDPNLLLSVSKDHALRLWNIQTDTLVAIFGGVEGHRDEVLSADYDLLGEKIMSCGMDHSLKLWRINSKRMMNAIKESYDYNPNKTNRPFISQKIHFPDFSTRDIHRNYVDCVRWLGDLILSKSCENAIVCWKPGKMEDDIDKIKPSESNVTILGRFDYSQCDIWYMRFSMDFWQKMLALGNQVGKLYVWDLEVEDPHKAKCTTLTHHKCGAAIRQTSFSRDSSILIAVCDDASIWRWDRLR
Sequence (Q15022 whole entry partner): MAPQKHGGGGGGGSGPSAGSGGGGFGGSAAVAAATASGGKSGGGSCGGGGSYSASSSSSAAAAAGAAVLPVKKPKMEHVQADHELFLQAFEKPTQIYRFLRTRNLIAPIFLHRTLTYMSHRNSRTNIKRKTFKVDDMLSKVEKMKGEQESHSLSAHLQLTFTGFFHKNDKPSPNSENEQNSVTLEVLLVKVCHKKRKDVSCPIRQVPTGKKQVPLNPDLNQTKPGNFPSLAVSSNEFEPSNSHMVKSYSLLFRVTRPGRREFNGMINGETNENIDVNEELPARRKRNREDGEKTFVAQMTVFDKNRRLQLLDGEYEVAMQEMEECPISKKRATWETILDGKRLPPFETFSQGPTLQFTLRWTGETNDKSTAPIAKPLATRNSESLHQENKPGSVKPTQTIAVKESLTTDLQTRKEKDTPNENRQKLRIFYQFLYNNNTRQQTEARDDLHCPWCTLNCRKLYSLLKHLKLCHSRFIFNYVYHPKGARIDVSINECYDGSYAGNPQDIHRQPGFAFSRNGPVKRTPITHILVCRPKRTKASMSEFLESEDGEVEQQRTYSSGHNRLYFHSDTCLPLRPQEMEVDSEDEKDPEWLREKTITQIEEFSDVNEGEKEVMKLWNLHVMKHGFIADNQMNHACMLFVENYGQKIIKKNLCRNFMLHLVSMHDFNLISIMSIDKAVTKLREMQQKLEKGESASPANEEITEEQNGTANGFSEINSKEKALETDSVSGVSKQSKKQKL
Sequence (Q09028 whole entry partner): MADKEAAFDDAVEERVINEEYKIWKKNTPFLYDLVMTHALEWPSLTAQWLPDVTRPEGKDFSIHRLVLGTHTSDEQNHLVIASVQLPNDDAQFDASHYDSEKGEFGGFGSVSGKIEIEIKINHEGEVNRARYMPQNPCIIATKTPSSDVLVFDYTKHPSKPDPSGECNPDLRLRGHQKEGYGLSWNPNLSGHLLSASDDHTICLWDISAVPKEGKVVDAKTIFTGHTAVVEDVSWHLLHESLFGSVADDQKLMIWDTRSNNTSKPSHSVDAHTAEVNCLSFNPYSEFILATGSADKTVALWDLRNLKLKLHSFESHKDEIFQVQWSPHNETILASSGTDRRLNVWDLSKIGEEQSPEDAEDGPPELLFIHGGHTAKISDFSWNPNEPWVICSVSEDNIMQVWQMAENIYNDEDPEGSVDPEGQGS
Sequence (Q6ZN18 whole entry partner): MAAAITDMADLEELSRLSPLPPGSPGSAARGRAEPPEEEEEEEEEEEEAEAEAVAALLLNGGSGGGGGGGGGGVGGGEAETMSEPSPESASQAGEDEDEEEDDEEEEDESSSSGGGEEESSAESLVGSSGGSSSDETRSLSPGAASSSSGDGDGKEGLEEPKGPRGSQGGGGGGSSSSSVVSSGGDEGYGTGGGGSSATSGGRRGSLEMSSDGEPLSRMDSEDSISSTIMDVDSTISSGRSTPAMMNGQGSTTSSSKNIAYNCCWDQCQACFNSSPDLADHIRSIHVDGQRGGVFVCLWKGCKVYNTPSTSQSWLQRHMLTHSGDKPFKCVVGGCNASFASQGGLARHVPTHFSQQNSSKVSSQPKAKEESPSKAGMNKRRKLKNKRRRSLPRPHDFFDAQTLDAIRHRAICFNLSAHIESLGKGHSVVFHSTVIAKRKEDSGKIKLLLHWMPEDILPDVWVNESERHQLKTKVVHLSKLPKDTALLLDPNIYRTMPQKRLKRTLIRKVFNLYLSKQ
TEST: AlphaLISA, mutant type PRC2 complex EZH2(Y641N)
CONDITION_LABEL: read-out: Mutant type EZH2(Y641N) IC50 Nanomoles per Liter
READOUT_KIND: IC50 (nM)
Numbers only, in nM.

Input: Return reported IC50. Input compound: `CCN(c1cc(-c2ccc3c(c2)C2(CCOCC2)C(=O)N3C)cc(C(=O)NCc2c(OC)cc(C)[nH]c2=O)c1C)C1CCN(CC(F)(F)F)CC1`
Output: 0.52

Input: Return reported IC50. Input compound: `CCN(c1cc(-c2ccc3c(c2)NC(=O)C32CCC(F)(F)CC2)cc(C(=O)NCc2c(C)cc(C)[nH]c2=O)c1C)C1CCOCC1`
Output: 0.24

Input: Return reported IC50. Input compound: `CCN(c1cc(-c2ccc3c(c2)NC(=O)C32CCOCC2)cc(C(=O)NCc2c(C)cc(C)[nH]c2=O)c1C)C1CCN(C)CC1`
Output: 0.48

Input: Return reported IC50. Input compound: CCN(c1cc(-c2ccc3c(c2)NC(=O)C32CCOCC2)cc(C(=O)NCc2c(C)cc(C)[nH]c2=O)c1C)C1CCOCC1OC (stereo not drawn)
Output: 0.45

Input: Return reported IC50. Input compound: `CCN(c1cc(-c2cc3c(cc2F)CCC32CCOCC2)cc(C(=O)NCc2c(C)cc(C)[nH]c2=O)c1C)C1CCOCC1`
Output: 0.23

Continuing:
Input: Return reported IC50. Input compound: CCN(c1cc(-c2ccc3c(c2)NC(=O)C32CCOCC2)cc(C(=O)NCc2c(OC)cc(C)[nH]c2=O)c1C)C1CCC(N(C)C2COC2)CC1 (stereo not drawn)
Output: 0.21

---

TEST: Pharmacokinetic experiment in rats
Type: in vivo, SD rats
CONDITION_LABEL: male, SD, rat, plasma; rats, Oral-Dose 20 mg/kg; read-out: Blood Drug level (Cmax, ng/mL)
Assignment: determine reported Cmax for the given molecules.
Give bare numbers, in ng/mL.

Below, each entry is followed by its recorded Cmax result.
Input: Return reported Cmax. Input molecule: `CCN(c1cc(-c2ccc3c(c2)N(CC(F)(F)C(F)(F)F)C(=O)C32CCOCC2)cc(C(=O)NCc2c(C)cc(C)[nH]c2=O)c1C)C1CCOCC1`
Output: 478

Input: Return reported Cmax. Input molecule: `CCN(c1cc(-c2ccc3c(c2)N(C)C(=O)C32CCNCC2)cc(C(=O)NCc2c(OC)cc(C)[nH]c2=O)c1C)C1CCOCC1`
Output: 594

Report Cmax for every entry below.
1. CCN(c1cc(-c2ccc3c(c2)NC(=O)C32CCOCC2)cc(C(=O)NCc2c(C)cc(C)[nH]c2=O)c1C)C1CCS(=O)(=O)CC1
2. CCN(c1cc(-c2ccc3c(c2)N(CCC(F)(F)F)C(=O)C32CCOCC2)cc(C(=O)NCc2c(C)cc(C)[nH]c2=O)c1C)C1CCOCC1

Output:
[436, 530]

---

Assignment: determine reported IC50 for the given compounds.
STUDY_SYSTEM: Mutant type EZH2(A677G) (Homo sapiens (Human), UniProt Q15910, A677G)
Sequence (Q15910 whole entry A677G): as the sequence (Q15910 whole entry Y641N) above, with N641Y, A677G counted along it
Sequence (O75530 whole entry partner): as the sequence (O75530 whole entry partner) above
Sequence (Q15022 whole entry partner): as the sequence (Q15022 whole entry partner) above
Sequence (Q09028 whole entry partner): as the sequence (Q09028 whole entry partner) above
Sequence (Q6ZN18 whole entry partner): as the sequence (Q6ZN18 whole entry partner) above
TEST: AlphaLISA, mutant type PRC2 complex EZH2(A677G)
Format: biochemical
Numbers only, in nM.

Report IC50 for every entry below.
1. CCN(c1cc(-c2ccc3c(c2)C2(CC=C(F)CC2)C(=O)N3)cc(C(=O)NCc2c(C)cc(C)[nH]c2=O)c1C)C1CCOCC1 (centres unmarked) [Example 118]
2. CCN(c1cc(-c2ccc3c(c2)C2(CCC(F)CC2)C(=O)N3)cc(C(=O)NCc2c(C)cc(C)[nH]c2=O)c1C)C1CCOCC1 (centres unmarked) [Example 119]

Output:
0.45
0.76

---

STUDY_SYSTEM: Mutant type EZH2(A677G) (Homo sapiens (Human), UniProt Q15910, A677G)
TEST: AlphaLISA, mutant type PRC2 complex EZH2(A677G)
Format: biochemical
CONDITION_LABEL: read-out: Mutant type EZH2(A677G) IC59 Nanomoles per Liter
Assignment: determine reported IC50 for the given compounds.
One number for each entry, in nM.

Input: Return reported IC50. Input compound: CCN(c1cc(-c2ccc3c(c2)NC(=O)C32CCOCC2)cc(C(=O)NCc2c(C)cc(C)[nH]c2=O)c1C)C1CCOCC1OC (centres unmarked)
Output: 0.73

Report IC50 for every entry below.
1. CCN(c1cc(-c2ccc3c(c2)CCC2(CCOCC2)C3=O)cc(C(=O)NCc2c(C)cc(C)[nH]c2=O)c1C)C1CCOCC1
2. CCN(c1cc(-c2ccc3c(c2)C2(CCOCC2)C(=O)N3C)cc(C(=O)NCc2c(C)cc(C)[nH]c2=O)c1C)C1CCOCC1
3. CCN(c1cc(-c2ccc3c(c2)NC(=O)C32CCNCC2)cc(C(=O)NCc2c(C)cc(C)[nH]c2=O)c1C)C1CCNCC1

Output:
1: 0.71; 2: 0.91; 3: 0.61

Input: Return reported IC50. Input compound: `CCN(c1cc(-c2ccc3c(c2)NC(=O)C32CCNCC2)cc(C(=O)NCc2c(C)cc(C)[nH]c2=O)c1C)C1CCSCC1`
Output: 0.38

---

STUDY_SYSTEM: Mutant type EZH2(Y641N) (Homo sapiens (Human), UniProt Q15910, Y641N)
TEST: AlphaLISA, mutant type PRC2 complex EZH2(Y641N)
CONDITION_LABEL: read-out: Mutant type EZH2(Y641N) IC50 Nanomoles per Liter
Each record's IC50 is compared with class A (below 0.3 nM), class B (0.3 nM to below 0.4 nM), class C (0.4 nM or more) to give its class.

Please review the entries below; each comes with its answer.
Input: GET /class?item= CCN(c1cc(-c2ccc3c(c2)NCC32CCOCC2)cc(C(=O)NCc2c(C)cc(C)[nH]c2=O)c1C)C1CCNCC1 [Example 6]
Output: class A

Input: GET /class?item= CCN(c1cc(-c2ccc3c(c2)C2(CC=C(F)CC2)C(=O)N3)cc(C(=O)NCc2c(C)cc(C)[nH]c2=O)c1C)C1CCOCC1 (centres unmarked) [Example 118]
Output: class B

Input: GET /class?item= CCN(c1cc(-c2ccc3c(c2)NC(=O)C32CCOCC2)cc(C(=O)NCc2c(C)cc(C)[nH]c2=O)c1C)C1CCN(C2COC2)CC1 [Example 82]
Output: class A

Continuing:
Input: GET /class?item= CCN(c1cc(-c2cnc3c(c2)NC(=O)C32CCOCC2)cc(C(=O)NCc2c(C)cc(C)[nH]c2=O)c1C)C1CCOCC1 [Example 101]
Output: class C

Input: GET /class?item= CCN(c1cc(-c2ccc3c(c2)NC(=O)C32CCC(=O)CC2)cc(C(=O)NCc2c(C)cc(C)[nH]c2=O)c1C)C1CCOCC1 [Example 92]
Output: class B

Input: GET /class?item= CCN(c1cc(-c2ccc3c(c2)NC(=O)C32CCOCC2)cc(C(=O)NCc2c(C)cc(C)[nH]c2=O)c1C)C1CCC(N(C)C)CC1 (centres unmarked) [Example 98]
Output: class A

---

Test system: human diffuse large B-cell lymphoma cells (Karpas 422 cell)
TEST: Karpas 422 cell proliferation, Calcein AM staining
Format: cell-based
CONDITION_LABEL: Homo sapiens, KARPAS-422; data of 14th day; read-out: Karpas422 Proliferation IC50 Nanomoles per Liter
Define the label as criterion met when IC50 is strictly less than 5 nM and as criterion not met in all remaining cases.

Please review the entries below; each comes with its answer.
Input: API: query returns whether the compound falls strictly under 5 nM in IC50. Query: `CCN(c1cc(-c2ccc3c(c2)N(CC(F)(F)F)CC32CCOCC2)cc(C(=O)NCc2c(C)cc(C)[nH]c2=O)c1C)C1CCOCC1`
Output: criterion met

Input: API: query returns whether the compound falls strictly under 5 nM in IC50. Query: `CCN(c1cc(-c2ccc3c(c2)C(=O)C2(CCN(C)CC2)C3)cc(C(=O)NCc2c(C)cc(C)[nH]c2=O)c1C)C1CCOCC1`
Output: criterion not met

Input: API: query returns whether the compound falls strictly under 5 nM in IC50. Query: `CCN(c1cc(-c2ccc3c(c2)NC(=O)C32CCS(=O)(=O)CC2)cc(C(=O)NCc2c(C)cc(C)[nH]c2=O)c1C)C1CCOCC1`
Output: criterion met

Input: API: query returns whether the compound falls strictly under 5 nM in IC50. Query: `CCN(c1cc(-c2ccc3c(c2)N(C)C(=O)C32CCN(C(=O)OC)CC2)cc(C(=O)NCc2c(C)cc(C)[nH]c2=O)c1C)C1CCOCC1`
Output: criterion met

# evaluate next
Input: API: query returns whether the compound falls strictly under 5 nM in IC50. Query: CCN(c1cc(-c2ccc3c(c2)NC(=O)C32CCOCC2)cc(C(=O)NCc2c(OC)cc(C)[nH]c2=O)c1C)C1CCOCC1OC (stereo not drawn)
Output: criterion not met
